# collection of GI50 values tested on HCT-15

Quick check: GI50 on HCT-15, item Cc1ccc(C(=O)OC(C)C)cc1/N=N/N(C)C ?
> 100 µM

Quick check: GI50 on HCT-15, item CCOC(=O)c1c(NC(=O)c2cccs2)sc2c1CCCC2 ?
> 100 µM

Quick check: GI50 on HCT-15, item O=C(O)/C(=C/c1ccccc1[N+](=O)[O-])c1cccs1 ?
> 100 µM

---

system: OVCAR-5; test: NCI tumour cell line growth inhibition, 48 h
The source made the active and inactive calls. Cut-off read from the data, not from the text of the source: active = GI50 up to about 1.1 µM and inactive = higher.
Measurement Label: GI50

Take a look at these entries with their results.
O=C1CCCC(=O)N1n1c(Cc2ccc(Cl)cc2)n[nH]c1=O; > 100 µM (inactive)
CC1=Nc2ccccc2OC(C)=C1/N=N/c1ccc2[nH]c(C)nc2c1; > 100 µM (inactive)
CC(=O)N1CCc2c([nH]c3ccc(Br)cc23)C1c1ccccc1 (configuration not stated); > 10 µM (inactive)

Quick check: GI50 on OVCAR-5, item Cc1ccc(-c2cc(C(F)(F)F)nn2-c2ccc(S(N)(=O)=O)cc2)cc1 ?
19.7 µM (inactive)

Quick check: GI50 on OVCAR-5, item CN1CCc2c(sc3ncn(C)c(=N)c23)C1 ?
> 100 µM (inactive)

Quick check: GI50 on OVCAR-5, item COC(=O)c1ccc(NCc2cc(O)ccc2O)cc1 ?
15 µM (inactive)

Quick check: GI50 on OVCAR-5, item COc1cc(OC)c2c(c1OC)OCC(Cc1ccc(O)cc1)C2=O (configuration not stated) ?
> 25 µM (inactive)

Quick check: GI50 on OVCAR-5, item C[N+](C)(C)CC1CCCC(C[N+](C)(C)C)C1=O (configuration not stated) ?
3.52 µM (inactive)

Quick check: GI50 on OVCAR-5, item N#C[C@H](c1nc2ccccc2[nH]1)c1nc2ccccc2nc1Cl ?
> 44.3 µM (inactive)

Quick check: GI50 on OVCAR-5, item CC1CC(c2cccc3c2OCO3)=Nc2ccccc2S1 (configuration not stated) ?
> 100 µM (inactive)

Quick check: GI50 on OVCAR-5, item CCc1c(CNC2=NCCN2)c(CC)c(CNC2=NCCN2)c(CC)c1CNC1=NCCN1 ?
> 100 µM (inactive)

Quick check: GI50 on OVCAR-5, item CO[C@@H]1[C@H](OC(=O)NC(=O)CCl)CC[C@]2(CO2)[C@H]1[C@@]1(C)O[C@@H]1CC=C(C)C ?
17.3 µM (inactive)

---

tested on: RPMI-8226; assay: NCI tumour cell line growth inhibition, 48 h
Active and inactive are the calls of the source. Cut-off read from the data, not from the text of the source: active = GI50 up to about 1.1 µM and inactive = higher.
Measurement Label: GI50

COC(=O)c1cc2ccc(O)c(O)c2cn1; 17.1 µM (inactive)
COc1c2c(cc3nc4ccccc4nc13)CC[C@H](NC(C)=O)c1cc(=O)c(SC)ccc1-2; 0.538 µM (active)
COc1ccc2c(c1OC)CN1CCc3cc4c(cc3C1C2)OCO4 (centres undefined) [TETRAHYDROBERBERINE]; > 100 µM (inactive)

Quick check: GI50 on RPMI-8226, item O=C1C(Br)=C[C@H]2C3C=CC(Br)(C3=O)[C@@H]12 (some centres undefined) ?
3.05 µM (inactive)

Quick check: GI50 on RPMI-8226, item CC(C)(C)C(=O)CC(=O)C(F)(F)C(F)(F)C(F)(F)F ?
11.1 µM (inactive)

---

tested on: SN12C; assay: NCI tumour cell line growth inhibition, 48 h
The source made the active and inactive calls. Rule as the data show it: active = GI50 up to about 1.1 µM and inactive = higher.
As shown below, each of these compounds has a reported GI50 value.

Take a look at these entries with their results.
CCOC(=O)C(=O)Nc1ccccc1C(F)(F)F; > 100 µM (inactive)
CCN(CC)C(=O)COc1ccc(Br)cc1Br; > 100 µM (inactive)
O=C(Cn1c2c(c3ccccc31)CCCC2)NC1CCCCC1; > 100 µM (inactive)
O=C(CC(CC(=O)Oc1c(Br)cc(Br)cc1C(=O)O)C(=O)Oc1c(Br)cc(Br)cc1C(=O)O)Oc1c(Br)cc(Br)cc1C(=O)O; 52.1 µM (inactive)
CCCc1c(C(=O)OCC)[nH]c(C(=O)CCC(=O)c2[nH]c(C(=O)OCC)c(CCC)c2C(=O)OCC)c1C(=O)OCC; > 100 µM (inactive)

Quick check: GI50 on SN12C, item CC1(C)OP(=O)(c2ccccc2)C=C1Sc1ccc([N+](=O)[O-])cc1[N+](=O)[O-] (configuration not stated) ?
45.9 µM (inactive)

Quick check: GI50 on SN12C, item CN1CCN(c2ccc3nc(C4=C(O)C(=O)c5c(nc(CO)n5C)C4=O)[nH]c3n2)CC1 ?
> 100 µM (inactive)

---

As shown below, each of these compounds has a reported GI50 value.
test system: A549; assay: NCI tumour cell line growth inhibition, 48 h
Calls of active or inactive are those of the source. Cut-off read from the data, not from the text of the source: active = GI50 up to about 1.1 µM and inactive = higher.

CCCCN(CCCC)CC(C(C)=O)C(c1ccccc1)c1c(O)c2ccccc2oc1=O (stereo not given); > 100 µM (inactive)
Nc1nc2c(C(=O)O)c3ccc([N+](=O)[O-])cc3c(=O)n2c2ccccc12; 26.2 µM (inactive)

Quick check: GI50 on A549, item COC(=O)c1c(C)cccc1C1CN=NC12Cc1cc(C)cc(C)c1C2=O (stereo not given) ?
37.1 µM (inactive)

Quick check: GI50 on A549, item CC(C)N(C(=O)C12C3C4C1C1C2C3C41C(=O)O)C(C)C (stereo not given) ?
> 100 µM (inactive)

Quick check: GI50 on A549, item C(/Cc1ccc2c(c1)OCO2)=N\N=C1NCCN1 ?
73.8 µM (inactive)

---

As shown below, each of these compounds has a reported GI50 value.
test system: IGROV-1; assay: NCI tumour cell line growth inhibition, 48 h
Active and inactive are the calls of the source. Rule as the data show it: active = GI50 up to about 1.1 µM and inactive = higher.

Take a look at these entries with their results.
CCOC(=O)c1nc2ccccc2nc1Oc1cc(OC)cc(OC)c1; > 100 µM (inactive)
COC(=O)[C@H](Cc1ccc(OC(C)(C)C)cc1)N[C@H](C)C(=O)N[C@@H](Cc1ccccc1)C(=O)OCc1ccccc1; > 100 µM (inactive)
Cc1ccc(-c2nc(Cc3n[nH]c(-c4ccc(C)cc4)n3)n[nH]2)cc1; > 100 µM (inactive)
Oc1ccc(/C=C/c2ccc3cccc(O)c3n2)cc1O; 1.44 µM (inactive)
C=C(CN(C)C)C(=O)c1ccc(Oc2ccccc2)cc1; 14.9 µM (inactive)

With those in mind, consider the next compound.
Sample CCN(CC)Cc1cc(Nc2c3ccccc3nc3c4ccccc4n(C)c23)cc(CN(CC)CC)c1O — what was its GI50?
9.98 µM (inactive)

---

test system: NCI-H226; experiment: NCI tumour cell line growth inhibition, 48 h
The source made the active and inactive calls. Rule as the data show it: active = GI50 up to about 1.1 µM and inactive = higher.
Choose one outcome from this list and give only that: yes (1) (active), no (0) (inactive)

The examples below pair each entry with its known result.
O=C1/C=C(/c2ccc(O)cc2)[C@@H](OC2OC(CO)C(O)C(O)C2O)Cc2ccc(O)cc2O1.O=C1/C=C(/c2ccc(O)cc2)[C@H](O)Cc2ccc(O[C@@H]3OC(CO)C(O)C(O)C3O)cc2O1 (stereo partly specified); no (0)
CC(=O)c1nc2ccccc2n1CC(=O)c1ccc(Cl)cc1; no (0)
COC(=O)c1c(C)cccc1C1CN=NC12Cc1cc(C)cc(C)c1C2=O (stereo unspecified); no (0)
NC1=NS(=O)(=O)Nc2[nH]c(-c3ccccc3)nc21; no (0)
O=c1[nH]c(=O)n(COCCO)c2ccsc12; no (0)

Tell me the recorded outcome of this test for CC(C)[C@@H](COC(C)(C)C)/N=C/N1CCc2c([nH]c3ccccc23)C1 .
no (0)

Tell me the recorded outcome of this test for C[N+](C)(C)CC1CCCC(C[N+](C)(C)C)C1=O (stereo unspecified) .
no (0)

Tell me the recorded outcome of this test for CNC(=O)N1N[C@H](c2ccccc2)[C@@H]1c1ccccc1.OB(O)O .
no (0)

Tell me the recorded outcome of this test for N=C(N)SCc1cccc2c(=O)cc(-c3ccccc3)oc12 .
no (0)

Tell me the recorded outcome of this test for Cc1cc(C)c(/N=N/c2c(O)c(S(=O)(=O)O)cc3cc(S(=O)(=O)O)ccc23)cc1C .
no (0)

Tell me the recorded outcome of this test for CCOC(=O)CCC(NC(=O)OCc1ccccc1)C(=O)NC(CCC(=O)OCC)C(=O)NNC(=O)OC(C)(C)C (stereo unspecified) .
no (0)

Tell me the recorded outcome of this test for C/C(=N\Nc1nc2ccccc2o1)c1cc(C)ncn1 .
yes (1)

Tell me the recorded outcome of this test for O=C(O)[C@@H](NS(=O)(=O)c1ccc([N+](=O)[O-])cc1)c1ccccc1 .
no (0)

Tell me the recorded outcome of this test for Cc1ccc(S(=O)(=O)Oc2nc3ccccc3nc2OS(=O)(=O)c2ccc(C)cc2)cc1 .
no (0)

Tell me the recorded outcome of this test for COc1ccc(NC/C=C/C(=C/COC(C)=O)OC(C)=O)cc1 .
no (0)

Tell me the recorded outcome of this test for NC1=CN2c3ccccc3N(CC(=O)N3CCOCC3)C2C=C1 (stereo unspecified) .
no (0)
